FYI, the data here is from ChEMBL document CHEMBL1139785.

Biological target: Protease (Human immunodeficiency virus 1)
Sequence (Q9YQ12 whole entry): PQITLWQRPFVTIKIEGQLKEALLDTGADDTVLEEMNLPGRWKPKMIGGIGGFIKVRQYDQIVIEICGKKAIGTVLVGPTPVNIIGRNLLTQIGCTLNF
Task for the reader: assign each of the following compounds its reported IC50.
Give bare numbers, in nM.

Answered examples (3):
Cc1cccc(C)c1CNC(=O)[C@H]1N(C(=O)[C@@H](O)C[C@@H](Cc2ccccc2)C(=O)N[C@H]2c3ccccc3OC[C@H]2O)CSC1(C)C	0.03
Cc1cccc(C)c1CNC(=O)[C@H]1N(C(=O)[C@@H](O)C[C@@H](Cc2ccccc2)C(=O)N[C@H]2c3ccccc3OC[C@H]2O)CCC1(C)C	0.14
Cc1nsc(C)c1CNC(=O)[C@H]1N(C(=O)[C@@H](O)C[C@@H](Cc2ccccc2)C(=O)N[C@H]2c3ccccc3OC[C@H]2O)COC12CCCC2	0.1

// each listed compound needs a value for IC50
1. Cc1cccc(C)c1CNC(=O)[C@H]1N(C(=O)[C@@H](O)C[C@@H](Cc2ccccc2)C(=O)N[C@H]2c3ccccc3OC[C@H]2O)COC1(C)C
2. Cc1cccc(C)c1CNC(=O)[C@H]1N(C(=O)[C@@H](O)C[C@@H](Cc2ccccc2)C(=O)N[C@H]2c3ccccc3OC[C@H]2O)COC12CCCC2
3. O=C(N[C@H]1c2ccccc2OC[C@H]1O)[C@H](Cc1ccccc1)C[C@H](O)C(=O)N1COC2(CCCC2)[C@H]1C(=O)NCc1c(Cl)cccc1Cl

0.17
0.1
0.11
